Each entry below carries its reported pIC50.
# target_desc: human full length HSD11β1 (Homo sapiens)
# Construct: transient expression of human full length HSD11β1 expression vector
# measurement_description: In Vitro HSD11β1 Inhibition Assay
# condition_info: CHO cells transiently expressing human HSD11β1; 200 nM cortisone+500 uM NADPH overnight; cortisone to cortisol by LC/MS-MS; read-out: 11βHSD1 (IC50)
pIC50: −log10 of the molar value.

CC(CC(=O)N1C2CC3CC1CC(O)(C3)C2)c1c[nH]c2cccc(N3CCCCC3)c12 (stereo not shown); < 6.60
Cc1[nH]c2cccc(Cl)c2c1C(C)CC(=O)N1C2CC3CC1CC(O)(C3)C2 (stereo not shown); < 6.60
Cc1ccc2[nH]cc(C(C)CC(=O)N3C4CC5CC3CC(F)(C5)C4)c2c1C (stereo not shown); < 6.60

Cc1ccc2[nH]cc(C(C)CC(=O)N3C4CC5CC3CC(O)(C5)C4)c2c1Cl (single isomer, unassigned) [Compound 175] has a reported pIC50 of > 7.00

----------
# target_desc: human full length HSD11β1 (Homo sapiens)
# Construct: transient expression of human full length HSD11β1 expression vector
# measurement_description: In Vitro HSD11β1 Inhibition Assay
# condition_info: CHO cells transiently expressing human HSD11β1; 200 nM cortisone+500 uM NADPH overnight; cortisone to cortisol by LC/MS-MS; read-out: 11βHSD1 (IC50)
Each entry below carries its reported IC50.

Example entries and their recorded answers appear below.
CC(CC(=O)N1C2CC3CC1CC(O)(C3)C2)c1c[nH]c2ccccc12 (stereo not drawn) [Example 20]; > 250 nM
O=C(CCc1c[nH]c2ncccc12)N1C2CC3CC(C2)CC1C3 [Example 14]; 100 to 150 nM
CC(CC(=O)N1C2CC3CC1CC(C(N)=O)(C3)C2)c1c[nH]c2cccc(C3CC3)c12 (stereo not drawn) [Example 56]; < 100 nM
CC(CC(=O)N1C2CC3CC1CC(O)(C3)C2)c1c[nH]c2ccc(F)cc12 (stereo not drawn) [Compound 75]; 200 to 250 nM
CC(CC(=O)N1C2CC3CC1CC(O)(C3)C2)c1c[nH]c2cccc(Cl)c12 (stereo not drawn) [Example 35]; < 100 nM

O=C(O)CC12CC3CC(C1)N(C(=O)CC(c1cccs1)c1c[nH]c4cccc(F)c14)C(C3)C2 (stereo not drawn) [Compound 159] has a reported IC50 of 100 to 150 nM

Cc1cccc2[nH]cc(CCC(=O)N3C4CC5CC(C4)CC3C5)c12 [Example 2] has a reported IC50 of 100 to 150 nM

Cc1cccc2[nH]cc(C(C)CC(=O)N3C4CC5CC3CC(F)(C5)C4)c12 (stereo not drawn) [Compound 104] has a reported IC50 of < 100 nM

CC(CC(=O)N1C2CC3CC1CC(Cl)(C3)C2)c1c[nH]c2cccc(F)c12 (stereo not drawn) [Example 32] has a reported IC50 of 150 to 200 nM

----------
Each entry below carries its reported pIC50.
# target_desc: human full length HSD11β1 (Homo sapiens, UniProt P28845)
# Construct: transient expression of human full length HSD11β1 expression vector
# Sequence (P28845 whole entry): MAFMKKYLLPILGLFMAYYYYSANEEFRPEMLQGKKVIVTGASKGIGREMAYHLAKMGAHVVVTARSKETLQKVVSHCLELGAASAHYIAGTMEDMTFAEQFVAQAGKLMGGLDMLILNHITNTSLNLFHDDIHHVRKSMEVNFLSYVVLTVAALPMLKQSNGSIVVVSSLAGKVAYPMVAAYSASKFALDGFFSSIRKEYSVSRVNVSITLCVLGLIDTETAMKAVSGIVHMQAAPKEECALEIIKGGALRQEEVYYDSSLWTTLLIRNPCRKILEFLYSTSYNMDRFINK
# measurement_description: In Vitro HSD11β1 Inhibition Assay
# condition_info: CHO cells transiently expressing human HSD11β1; 200 nM cortisone+500 uM NADPH overnight; cortisone to cortisol by LC/MS-MS; read-out: 11βHSD1 (IC50)
pIC50: −log10 of the molar value.

CC(CC(=O)N1C2CC3CC1CC(O)(C3)C2)c1c[nH]c2ccc(-c3ccco3)c(Cl)c12 (centres unmarked); 6.82 to 7.00

Cc1cccc2[nH]cc(C(C)CC(=O)N3C4CC5CC3CC(C(=O)O)(C5)C4)c12 (centres unmarked) has a reported pIC50 of < 6.60

O=C(CC(c1cccs1)c1c[nH]c2cccc(F)c12)N1C2CC3CC1CC(O)(C3)C2 (centres unmarked) has a reported pIC50 of > 7.00

CC(CC(=O)N1C2CC3CC1CC(O)(C3)C2)c1c[nH]c2cc(F)ccc12 (single isomer, unassigned) [Compound 97] has a reported pIC50 of < 6.60

CC(CC(=O)N1C2CC3CC1CC(O)(C3)C2)c1nc2ccccc2s1 (centres unmarked) [Compound 84] has a reported pIC50 of 6.60 to 6.70

COc1ccc2[nH]cc(C(C)CC(=O)N3C4CC5CC3CC(O)(C5)C4)c2c1C1CC1 (centres unmarked) has a reported pIC50 of 6.60 to 6.70

CC(CC(=O)N1C2CC3CC1CC(O)(C3)C2)c1nc2ccccc2s1 (single isomer, unassigned) [Compound 115] has a reported pIC50 of 6.60 to 6.70

CC(CC(=O)N1C2CC3CC1CC(O)(C3)C2)c1nc2cc(Cl)ccc2s1 (centres unmarked) has a reported pIC50 of 6.70 to 6.82
